Each recorded value in this set is attributed to paper PMC9937538.

Molecular target: hCA VB (Homo sapiens, UniProt Q9Y2D0)
Sequence (Q9Y2D0 34-317): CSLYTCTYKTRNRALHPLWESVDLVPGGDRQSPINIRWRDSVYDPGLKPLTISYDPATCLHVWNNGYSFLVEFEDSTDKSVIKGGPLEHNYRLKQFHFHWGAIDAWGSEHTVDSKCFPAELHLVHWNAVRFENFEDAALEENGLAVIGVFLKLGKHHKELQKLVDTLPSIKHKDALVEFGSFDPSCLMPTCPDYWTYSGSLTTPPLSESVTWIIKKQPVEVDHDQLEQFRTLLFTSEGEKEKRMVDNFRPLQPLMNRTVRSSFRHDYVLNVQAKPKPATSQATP
Assay: CA inhibition, stopped-flow CO2 hydration assay
measuredEndpoint: Ki

// returns reported Ki for input CC(C)NS(=O)(=O)c1ccc(OCCNCC2COc3ccccc3O2)cc1 (stereo not shown)
> 10 µM

* * *

Biological target: hCA I (Homo sapiens, UniProt P00915)
Sequence (P00915 whole entry): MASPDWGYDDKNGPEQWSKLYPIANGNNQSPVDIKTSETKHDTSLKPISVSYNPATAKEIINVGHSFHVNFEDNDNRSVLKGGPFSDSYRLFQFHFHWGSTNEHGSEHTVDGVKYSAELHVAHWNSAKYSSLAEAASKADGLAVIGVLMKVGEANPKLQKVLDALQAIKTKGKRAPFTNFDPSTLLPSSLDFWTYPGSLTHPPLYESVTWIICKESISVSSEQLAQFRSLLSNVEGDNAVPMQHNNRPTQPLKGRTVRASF
Assay: CA inhibition, stopped-flow CO2 hydration assay
measuredEndpoint: Ki

For CC(C)NS(=O)(=O)c1ccc(OCCNCC2COc3ccccc3O2)cc1 (stereo not shown) [Compound 5] , what is its reported Ki?
> 10 µM

* * *

Molecular target: purified recombinant human DPP IV (Homo sapiens, UniProt P27487)
Construct: purchased Cayman Chemicals (Michigan)
Sequence (P27487 whole entry): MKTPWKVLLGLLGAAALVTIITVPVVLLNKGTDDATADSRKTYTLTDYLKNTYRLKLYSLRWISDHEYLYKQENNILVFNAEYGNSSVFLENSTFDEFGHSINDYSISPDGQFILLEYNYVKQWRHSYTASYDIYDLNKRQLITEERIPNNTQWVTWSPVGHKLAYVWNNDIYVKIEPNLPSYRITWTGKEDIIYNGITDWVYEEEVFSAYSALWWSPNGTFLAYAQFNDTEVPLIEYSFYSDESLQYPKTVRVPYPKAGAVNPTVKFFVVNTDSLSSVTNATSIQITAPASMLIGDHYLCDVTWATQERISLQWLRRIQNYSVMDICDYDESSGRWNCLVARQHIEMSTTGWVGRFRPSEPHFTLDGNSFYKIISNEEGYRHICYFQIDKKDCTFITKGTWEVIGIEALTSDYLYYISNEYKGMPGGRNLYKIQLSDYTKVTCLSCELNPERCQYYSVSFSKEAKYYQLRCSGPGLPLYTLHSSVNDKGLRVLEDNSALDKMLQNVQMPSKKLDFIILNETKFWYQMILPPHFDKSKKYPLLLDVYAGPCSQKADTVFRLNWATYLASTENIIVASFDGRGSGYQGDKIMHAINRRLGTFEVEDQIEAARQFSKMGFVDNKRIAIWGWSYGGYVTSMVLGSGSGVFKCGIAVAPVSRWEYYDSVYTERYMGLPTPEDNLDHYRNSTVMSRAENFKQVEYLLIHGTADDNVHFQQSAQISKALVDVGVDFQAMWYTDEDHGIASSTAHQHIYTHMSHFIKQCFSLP
Assay: In vitro DPP IV activity assay (fluorogenic Gly-Pro-AMC substrate)
Format: biochemical
measuredEndpoint: IC50

Which IC50 value is on record for COc1cccc(OC)c1OCCNCC1COc2ccccc2O1 (stereo not shown) [WB-4101, reference compound] ?
> 700 µM

* * *

Target: hCA IX (Homo sapiens, UniProt Q16790)
Test: CA inhibition, stopped-flow CO2 hydration assay
measuredEndpoint: Ki

Record request: Ki value, item CC(C)NS(=O)(=O)c1ccc(OCCNCC2COc3ccccc3O2)cc1 (stereo not shown)
> 10 µM

* * *

Target: hCA VA (Homo sapiens, UniProt P35218)
Sequence (P35218 39-305): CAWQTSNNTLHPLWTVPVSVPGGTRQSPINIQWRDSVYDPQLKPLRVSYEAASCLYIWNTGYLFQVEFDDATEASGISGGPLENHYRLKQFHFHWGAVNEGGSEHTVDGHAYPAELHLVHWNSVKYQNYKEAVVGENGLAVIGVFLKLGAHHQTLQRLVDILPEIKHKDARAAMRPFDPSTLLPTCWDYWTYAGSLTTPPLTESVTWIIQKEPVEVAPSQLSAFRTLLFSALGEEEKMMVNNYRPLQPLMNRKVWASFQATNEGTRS
Assay: CA inhibition, stopped-flow CO2 hydration assay
measuredEndpoint: Ki

Query for hCA VA (Homo sapiens, UniProt P35218): what Ki does the record show for CC(C)NS(=O)(=O)c1ccc(OCCNCC2COc3ccccc3O2)cc1 (stereo not shown) ?
> 10 µM

* * *

Please respond with reported pKi for every item in the list.
Target: hCA IX (Homo sapiens)
Test: CA inhibition, stopped-flow CO2 hydration assay
Details: read-out: Ki CA IX; stopped-flow technique, mean from three assays
pKi: −log10 of the molar value.

Please report the recorded pKi for CCS(=O)(=O)Nc1ccc(OCCNCC2COc3ccccc3O2)cc1 (stereo not drawn) .
< 5.00

Would you kindly repeat that for COc1cccc(OC)c1OCCNCC1COc2ccccc2O1 (stereo not drawn) [WB-4101, reference compound] ?
< 5.00

Next compound: CCNS(=O)(=O)c1ccc(OCCNCC2COc3ccccc3O2)cc1 (stereo not drawn)
< 5.00
